# assayTarget: gp120 (Human immunodeficiency virus type 1 group M subtype B, UniProt P03375)
readoutType: pKd
One number for each entry, as −log10 of the molar value.

Cc1c(O)c(O)cc2c1C(/C(=C/C(=O)O)C(=O)OC1C3COC(=O)c4cc(O)c(O)c(O)c4-c4c(cc(O)c(O)c4O)C(=O)OC1C(O)C(OC(=O)c1cc(O)c(O)c(O)c1)O3)C(C(=O)O)OC2=O (stereo not shown) = 7.66
O=C1O[C@H]2[C@@H]3OC(=O)c4cc(O)c(O)c(O)c4-c4c(cc(O)c(O)c4O)C(=O)OC[C@H]2O[C@@H](OC(=O)c2cc(O)c(O)c(O)c2)[C@@H]3OC(=O)c2cc(O)c(O)c3c2[C@@H]2C1=CC(=O)[C@](O)(O3)C2(O)O = 7.12

Value lookup for pKd; key = `O=C(O[C@@H]1O[C@@H]2COC(=O)c3cc(O)c(O)c(O)c3-c3c(cc(O)c(O)c3O)C(=O)O[C@H]([C@H]1O)[C@@H]2O)c1cc(O)c(O)c(O)c1`
6.92
